The reported measurements were obtained from patent US20030087827A1.

Molecular target: T1, proprotein convertase PACE4
T1 construct: Partially purified preparation
T1 sequence (P29122 150-969, species assumed, looked up): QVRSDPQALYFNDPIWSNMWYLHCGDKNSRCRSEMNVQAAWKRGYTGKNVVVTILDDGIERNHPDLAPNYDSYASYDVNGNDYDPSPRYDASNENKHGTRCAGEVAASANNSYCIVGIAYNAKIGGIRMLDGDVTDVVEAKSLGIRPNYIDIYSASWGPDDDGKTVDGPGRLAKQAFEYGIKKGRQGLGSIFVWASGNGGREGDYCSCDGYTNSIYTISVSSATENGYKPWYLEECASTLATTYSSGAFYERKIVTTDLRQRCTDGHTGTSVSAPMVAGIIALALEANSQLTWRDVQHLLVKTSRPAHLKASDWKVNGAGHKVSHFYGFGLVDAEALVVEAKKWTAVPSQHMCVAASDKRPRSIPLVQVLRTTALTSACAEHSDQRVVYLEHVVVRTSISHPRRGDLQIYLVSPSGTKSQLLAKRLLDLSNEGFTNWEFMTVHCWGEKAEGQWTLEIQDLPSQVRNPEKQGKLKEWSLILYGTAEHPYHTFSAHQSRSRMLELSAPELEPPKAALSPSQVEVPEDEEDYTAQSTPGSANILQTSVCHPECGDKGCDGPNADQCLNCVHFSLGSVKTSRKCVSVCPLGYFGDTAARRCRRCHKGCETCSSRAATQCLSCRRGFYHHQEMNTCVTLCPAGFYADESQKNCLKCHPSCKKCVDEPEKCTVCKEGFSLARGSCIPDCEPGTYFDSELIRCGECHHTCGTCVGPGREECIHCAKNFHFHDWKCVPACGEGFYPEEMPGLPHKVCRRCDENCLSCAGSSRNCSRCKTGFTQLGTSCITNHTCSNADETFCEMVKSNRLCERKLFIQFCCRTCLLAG
Test: enzyme inhibition, pERTKR-MCA hydrolysis (fluorescence), competitive Ki
Non-standard residues stand in square brackets, D forms with d. No end group written: not given here.
Decision: Ki beneath 500 nM gives TRUE; Ki meeting or exceeding 500 nM gives FALSE.

Solved entries (count: 3):
binder="RRRRR (no terminal modifications; also called pentamer; pentameric polyarginine) [Penta-L-arginine]" category=FALSE
binder="RRRRRRRR (no terminal modifications; also called octamer) [Octa-L-arginine]" category=TRUE
binder="H-RRRR-OH (no terminal modifications; also called tetramer) [Tetra-L-arginine]" category=FALSE

Quick check: does RRRRRRRRR (no terminal modifications; also called nonamer) [Nona-L-arginine] have Ki under 500 nM?
TRUE

Quick check: does [dR][dR][dR][dR][dR][dR] (also called D6R; D-hexa-arginine) [Hexa-D-arginine] have Ki under 500 nM?
FALSE

Quick check: does H-RRRRRR-OH (no terminal modifications; also called hexamer) [Hexa-L-arginine] have Ki under 500 nM?
FALSE

Quick check: does RRRRRRR (no terminal modifications; also called heptamer) [Hepta-L-arginine] have Ki under 500 nM?
TRUE
